# target: Melanocortin receptor 4 (Homo sapiens, UniProt P32245)
# Sequence (P32245 whole entry): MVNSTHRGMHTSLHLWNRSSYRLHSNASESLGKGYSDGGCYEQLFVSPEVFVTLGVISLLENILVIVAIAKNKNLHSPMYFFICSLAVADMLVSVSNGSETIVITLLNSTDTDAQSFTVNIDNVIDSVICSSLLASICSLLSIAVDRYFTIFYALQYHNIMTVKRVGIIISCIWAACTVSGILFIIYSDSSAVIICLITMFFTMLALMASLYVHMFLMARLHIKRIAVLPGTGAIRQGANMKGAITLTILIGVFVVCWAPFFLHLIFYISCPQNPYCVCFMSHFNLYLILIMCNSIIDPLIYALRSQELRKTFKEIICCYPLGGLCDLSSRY
# test.summary: Displacement of [125I]NDPalphaMSH from human cloned MC4R expressed in CHO cells
# Assay type: cell-based
Listing: IC50 of selected compounds

Please review the following examples before continuing.
compound	measurement
CCCC[C@H](NC(C)=O)C(=O)N[C@H]1CC(=O)NCCCC[C@@H](C(N)=O)NC(=O)[C@H](Cc2c[nH]c3ccccc23)NC(=O)[C@@H]2CCCCN2C(=O)[C@@H](Cc2ccc(-c3ccccc3)cc2)NC(=O)[C@@H]2CC3CCCCC3N2C1=O (stereo partly specified)	> 5 µM
CCCC[C@H](NC(C)=O)C(=O)N[C@H]1CC(=O)NCCCC[C@@H](C(N)=O)NC(=O)[C@H](Cc2c[nH]c3ccccc23)NC(=O)[C@@H]2CCCN2C(=O)[C@@H](Cc2ccc(-c3ccccc3)cc2)NC(=O)[C@@H]2CC3CCCCC3N2C1=O (stereo partly specified)	4.7 µM (antagonist)
CCCC[C@H](NC(C)=O)C(=O)N[C@H]1CC(=O)NCCCC[C@@H](C(N)=O)NC(=O)[C@H](Cc2c[nH]c3ccccc23)NC(=O)[C@@H]2CCCCN2C(=O)[C@@H](Cc2ccc(-c3ccccc3)cc2)NC(=O)[C@H](c2ccccc2)NC1=O	0.99 µM (antagonist)
CCCC[C@H](NC(C)=O)C(=O)N[C@H]1CC(=O)NCCCC[C@@H](C(N)=O)NC(=O)[C@H](Cc2c[nH]c3ccccc23)NC(=O)[C@@H]2CCCCN2C(=O)[C@@H](Cc2ccc(-c3ccccc3)cc2)NC(=O)[C@H](Cc2c[nH]cn2)NC1=O	0.57 µM (antagonist)
CCCC[C@H](NC(C)=O)C(=O)N[C@H]1CC(=O)NCCCC[C@@H](C(N)=O)NC(=O)[C@H](Cc2c[nH]c3ccccc23)NC(=O)[C@@H]2CCCN2C(=O)[C@@H](CCC(=O)O)NC(=O)[C@H](Cc2c[nH]cn2)NC1=O	> 10 µM

Query :: Given the entry CCCC[C@H](NC(C)=O)C(=O)N[C@H]1CC(=O)NCCCC[C@@H](C(N)=O)NC(=O)[C@H](Cc2c[nH]c3ccccc23)NC(=O)[C@@H]2CCCCN2C(=O)[C@@H](Cc2ccc(-c3ccccc3)cc2)NC(=O)[C@H](C2CCCCC2)NC1=O , report its measured IC50.
Result :: > 10 µM

Reference source for all entries: ChEMBL document CHEMBL1139880
